Data credit: ChEMBL document CHEMBL6096737

assay: in vivo; details: male, Beagle, dog, po, 5 mg/kg
Measure Name: AUC(0-t) at 24 h (ng·h/mL)
Respond with the bare value in ng·h/mL.

Ask: Data request, read-out AUC(0-t) at 24 h, for C=C(C)C(=O)Nc1ccc(-c2c(-c3ccc(Oc4nccc(C)n4)c(F)c3)c3c(N)ncnc3n2C)cc1 [LIRAFUGRATINIB]
Result: 2680

---

assay: in vivo; conditions: male, Beagle, dog, po, 5 mg/kg
Measure Name: MRT last at 24 h
A complete answer gives the number followed by the unit.

Ask: Data request, read-out MRT last at 24 h, for C=C(C)C(=O)Nc1ccc(-c2c(-c3ccc(Oc4nccc(C)n4)c(F)c3)c3c(N)ncnc3n2C)cc1
Result: 52.2 min

---

test: in vivo; conditions: female, Balb/c, mouse, po, 10 mg/kg
Measure Name: AUC(0-t) at 8 h (ng·h/mL)
Respond with the bare value in ng·h/mL.

Ask: Data request, read-out AUC(0-t) at 8 h, for C=C(C)C(=O)Nc1ccc(-c2c(-c3ccc(Oc4nccc(C)n4)c(F)c3)c3c(N)ncnc3n2C)cc1 [LIRAFUGRATINIB]
Result: 20000

---

assay: in vivo; conditions: female, Balb/c, mouse, po, 10 mg/kg
Measure Name: Cmax at 8 h (µg/mL)
Respond with the bare value in µg/mL.

Ask: Data request, read-out Cmax at 8 h, for C=C(C)C(=O)Nc1ccc(-c2c(-c3ccc(Oc4nccc(C)n4)c(F)c3)c3c(N)ncnc3n2C)cc1
Result: 3.74

---

test: in vivo; details: male, Beagle, dog, plasma, iv, 1 mg/kg
Measure Name: clearance at 24 h
A complete answer gives the number followed by the unit.

Ask: Data request, read-out clearance at 24 h, for C=C(C)C(=O)Nc1ccc(-c2c(-c3ccc(Oc4nccc(C)n4)c(F)c3)c3c(N)ncnc3n2C)cc1
Result: 24.9 mL/min/kg

---

test: in vivo; settings: female, CD-1, mouse, plasma, iv, 1 mg/kg
Measure Name: clearance at 24 h

Ask: Data request, read-out clearance at 24 h, for C=C(F)C(=O)Nc1ccc(-c2c(-c3ccc(Oc4nccc(C)n4)cc3)c(C(N)=O)c3cnc(C)cn23)c(F)c1
Result: 29.1 mL/min/kg

---

assay: in vitro; settings: human, plasma
Measure Name: half-life

[
  {
    "Chemical String": "C=C(F)C(=O)Nc1ccc(-c2c(-c3ccc(Oc4nccc(C)n4)cc3)c(C(N)=O)c3cnc(C)cn23)c(F)c1",
    "half-life": "> 4.82 h"
  }
]

Switching to the query record.
Ask: Data request, read-out half-life, for C=C(C)C(=O)Nc1ccc(-c2c(-c3ccc(Oc4nccc(C)n4)c(F)c3)c3c(N)ncnc3n2C)cc1
Result: > 4.82 h

---

test: in vivo; conditions: male, Sprague-Dawley, rat, po, 10 mg/kg
Measure Name: half-life at 24 h (min)
Respond with the bare value in min.

Ask: Data request, read-out half-life at 24 h, for C=C(C)C(=O)Nc1ccc(-c2c(-c3ccc(Oc4nccc(C)n4)c(F)c3)c3c(N)ncnc3n2C)cc1
Result: 46.2

---

assay: physchem; conditions: glutathione (GSH) solution, 0.1 uM GSH
Measure Name: half-life (min)
Respond with the bare value in min.

Ask: Data request, read-out half-life, for C=C(CO)C(=O)Nc1ccc(-c2c(-c3ccc(Oc4nccc(C)n4)cc3)c(C(N)=O)c3cnc(C)cn23)cc1
Result: 48
